Experiment: xn = mol fraction of the nth substance listed, in the solute-free solvent
Details: 318.15 K; x2 = 0.2
observable: solubility (g/100 g solution)
Numbers only.

In the examples that follow, each entry is paired with its recorded solubility (g/100 g solution).
S=c1[nH]ncs1 + CCCO + O ... 17.5
S=c1[nH]ncs1 + CO + O ... 6.96
S=c1[nH]ncs1 + CC(C)=O + O ... 23.6

Enquiry: I am curious: what solubility (g/100 g solution) value has been reported for S=c1[nH]ncs1 + CCO + O ?
Return: 12.8

* * *

Hi there, I'd appreciate the recorded solubility (g/100 g solution) for every entry that follows.
Assay: xn = mol fraction of the nth substance listed, in the solute-free solvent
Conditions: 293.15 K; x2 = 0.1666
Give bare numbers.

Cc1[nH]c(=O)c(C#N)cc1-c1ccncc1 + CC(C)O + O ... 0.00608
Nc1cccc(S(=O)(=O)c2cccc(N)c2)c1 + CC(C)O + O ... 0.396
CN1CCN(C2=Nc3cc(Cl)ccc3Nc3ccccc32)CC1 + CC(C)O + O ... 0.237
Nc1nccnc1Cl + CC(C)O + O ... 0.387
c1ccc2[nH]c(-c3cscn3)nc2c1 + CC(C)O + O ... 0.0555

Enquiry: I am curious: what solubility (g/100 g solution) value has been reported for c1ccc2[nH]c(-c3cscn3)nc2c1 + CCCO + O ?
Return: 0.106

* * *

Hi there, I'd appreciate the recorded solubility (g/100 g solution) for every entry that follows.
Assay: xn = mol fraction of the nth substance listed, in the solute-free solvent
Conditions: 298.15 K; x2 = 0.3698
Give bare numbers.

COc1cc2c(cc1OC)-c1cc3ccc(OC)c(OC)c3c[n+]1CC2.[Cl-] + CCO + O ... 3.13
CC(C)OC(=O)C(C)NP(=O)(OCC1OC(n2ccc(=O)[nH]c2=O)C(C)(F)C1O)Oc1ccccc1 (centres undefined) + CCO + O ... 20.7
Nc1cccc(S(=O)(=O)c2cccc(N)c2)c1 + CCO + O ... 1.11

From here, focus on the item given below.
Enquiry: I am curious: what solubility (g/100 g solution) value has been reported for Cc1[nH]c(=O)c(C#N)cc1-c1ccncc1 + CCO + O ?
Return: 0.00518

* * *

Hi there, I'd appreciate the recorded solubility (g/100 g solution) for every entry that follows.
Experiment: xn = mol fraction of the nth substance listed, in the solute-free solvent
Conditions: 288.15 K; x2 = 0.7788
One number for each entry.

CC(C)OC(=O)C(C)NP(=O)(OCC1OC(n2ccc(=O)[nH]c2=O)C(C)(F)C1O)Oc1ccccc1 (centres undefined) + CCO + O ... 24.6
Cc1[nH]c(=O)c(C#N)cc1-c1ccncc1 + CCO + O ... 0.00602
COc1cc2c(cc1OC)-c1cc3ccc(OC)c(OC)c3c[n+]1CC2.[Cl-] + CCO + O ... 2.48

From here, focus on the item given below.
Enquiry: I am curious: what solubility (g/100 g solution) value has been reported for Nc1cccc(S(=O)(=O)c2cccc(N)c2)c1 + CCO + O ?
Return: 1.29

* * *

Hi there, I'd appreciate the recorded solubility (g/100 g solution) for every entry that follows.
Test: xn = mol fraction of the nth substance listed, in the solute-free solvent
Conditions: 318.15 K; x2 = 0.1139

c1ccc2[nH]c(-c3cscn3)nc2c1 + CCCO + O ... 0.116
Cc1[nH]c(=O)c(C#N)cc1-c1ccncc1 + CC(C)O + O ... 0.00801
Nc1nccnc1Cl + CC(C)O + O ... 0.567
CN1CCN(C2=Nc3cc(Cl)ccc3Nc3ccccc32)CC1 + CC(C)O + O ... 0.295
Nc1cccc(S(=O)(=O)c2cccc(N)c2)c1 + CC(C)O + O ... 0.98

From here, focus on the item given below.
Enquiry: I am curious: what solubility (g/100 g solution) value has been reported for c1ccc2[nH]c(-c3cscn3)nc2c1 + CC(C)O + O ?
Return: 0.0751
